# IC50 listing for each entry below
biological target: Met (Homo sapiens (Human), UniProt P08581); assay: Met autophosphorylation ELISA in PC-3 cells; conditions: cellular, HGF stimulated, read-out: c-Met IC50
Sequence (P08581 25-1390): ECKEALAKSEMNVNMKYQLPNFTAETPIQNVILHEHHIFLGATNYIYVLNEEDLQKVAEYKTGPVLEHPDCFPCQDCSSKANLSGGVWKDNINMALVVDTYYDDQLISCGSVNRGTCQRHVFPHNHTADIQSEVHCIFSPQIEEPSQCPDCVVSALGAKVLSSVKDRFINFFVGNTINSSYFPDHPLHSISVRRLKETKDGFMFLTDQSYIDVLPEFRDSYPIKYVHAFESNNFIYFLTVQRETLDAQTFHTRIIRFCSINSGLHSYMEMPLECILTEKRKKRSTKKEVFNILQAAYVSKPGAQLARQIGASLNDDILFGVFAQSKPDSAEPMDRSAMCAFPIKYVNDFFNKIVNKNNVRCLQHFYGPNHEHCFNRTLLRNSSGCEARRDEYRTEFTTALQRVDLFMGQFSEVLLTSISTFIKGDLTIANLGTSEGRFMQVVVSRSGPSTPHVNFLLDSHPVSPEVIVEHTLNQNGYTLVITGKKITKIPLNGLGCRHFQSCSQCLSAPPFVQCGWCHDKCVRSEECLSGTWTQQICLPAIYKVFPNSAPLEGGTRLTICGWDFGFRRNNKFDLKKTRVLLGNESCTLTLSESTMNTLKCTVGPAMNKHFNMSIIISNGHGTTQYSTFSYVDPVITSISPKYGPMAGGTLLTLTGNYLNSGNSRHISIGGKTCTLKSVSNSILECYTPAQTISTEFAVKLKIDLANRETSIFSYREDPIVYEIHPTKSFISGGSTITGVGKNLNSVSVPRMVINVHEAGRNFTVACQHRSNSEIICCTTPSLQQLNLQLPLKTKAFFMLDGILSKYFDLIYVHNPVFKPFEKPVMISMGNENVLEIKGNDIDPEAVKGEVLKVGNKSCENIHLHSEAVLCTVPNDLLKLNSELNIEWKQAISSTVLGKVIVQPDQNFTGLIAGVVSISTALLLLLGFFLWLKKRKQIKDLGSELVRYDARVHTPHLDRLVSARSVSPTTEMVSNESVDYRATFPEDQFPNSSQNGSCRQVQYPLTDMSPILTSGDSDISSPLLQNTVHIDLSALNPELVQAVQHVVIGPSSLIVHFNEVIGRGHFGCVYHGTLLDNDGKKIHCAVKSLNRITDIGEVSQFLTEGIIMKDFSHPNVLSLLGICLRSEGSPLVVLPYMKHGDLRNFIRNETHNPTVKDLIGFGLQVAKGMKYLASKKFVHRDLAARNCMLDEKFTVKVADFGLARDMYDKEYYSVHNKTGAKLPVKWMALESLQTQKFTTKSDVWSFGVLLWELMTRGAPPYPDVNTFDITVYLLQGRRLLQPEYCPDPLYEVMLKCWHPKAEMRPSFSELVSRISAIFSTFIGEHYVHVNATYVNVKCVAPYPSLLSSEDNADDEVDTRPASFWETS
readout kind: IC50

INSERT INTO measurements (mol, observed_measurement) VALUES
  ('COc1cc2nccc(Oc3ccc(NC(=O)C4(C(=O)Nc5ccc(F)cc5)CC4)cc3)c2cc1N1CC(O)C1', '≤ 10 nM'),
  ('COc1cc2nccc(Oc3ccc(NC(=O)C4(C(=O)Nc5ccc(F)cc5)CC4)cc3)c2cc1C(=O)N1CC(O)C1', '100 to 300 nM'),
  ('COc1cc2nccc(Oc3ccc(NC(=O)C4(C(=O)Nc5ccc(F)cc5)CC4)cc3)c2cc1-c1nnco1', '10 to 100 nM'),
  ('CNC(=O)c1cc2c(Oc3ccc(NC(=O)C4(C(=O)Nc5ccc(F)cc5)CC4)cc3)ccnc2cc1NC', '10 to 100 nM'),
  ('CCNC(=O)c1cc2c(Oc3ccc(NC(=O)C4(C(=O)Nc5ccc(F)cc5)CC4)cc3)ccnc2cc1OC', '10 to 100 nM'),
  ('Cc1cc2c(Oc3ccc(NC(=O)C4(C(=O)Nc5ccc(F)cc5)CC4)cc3F)ccnc2cc1C(N)=O', '10 to 100 nM'),
  ('CNC(=O)c1cc2c(Oc3ccc(NC(=O)C4(C(=O)Nc5ccc(F)cc5)CC4)cc3Cl)ccnc2cc1OC', '≤ 10 nM');

###

biological target: Mer (Homo sapiens (Human), UniProt Q12866); assay: Mer autophosphorylation ELISA in transient transfected 293A cells; conditions: cellular, MERTK transfected 293A cells
Sequence (Q12866 21-999): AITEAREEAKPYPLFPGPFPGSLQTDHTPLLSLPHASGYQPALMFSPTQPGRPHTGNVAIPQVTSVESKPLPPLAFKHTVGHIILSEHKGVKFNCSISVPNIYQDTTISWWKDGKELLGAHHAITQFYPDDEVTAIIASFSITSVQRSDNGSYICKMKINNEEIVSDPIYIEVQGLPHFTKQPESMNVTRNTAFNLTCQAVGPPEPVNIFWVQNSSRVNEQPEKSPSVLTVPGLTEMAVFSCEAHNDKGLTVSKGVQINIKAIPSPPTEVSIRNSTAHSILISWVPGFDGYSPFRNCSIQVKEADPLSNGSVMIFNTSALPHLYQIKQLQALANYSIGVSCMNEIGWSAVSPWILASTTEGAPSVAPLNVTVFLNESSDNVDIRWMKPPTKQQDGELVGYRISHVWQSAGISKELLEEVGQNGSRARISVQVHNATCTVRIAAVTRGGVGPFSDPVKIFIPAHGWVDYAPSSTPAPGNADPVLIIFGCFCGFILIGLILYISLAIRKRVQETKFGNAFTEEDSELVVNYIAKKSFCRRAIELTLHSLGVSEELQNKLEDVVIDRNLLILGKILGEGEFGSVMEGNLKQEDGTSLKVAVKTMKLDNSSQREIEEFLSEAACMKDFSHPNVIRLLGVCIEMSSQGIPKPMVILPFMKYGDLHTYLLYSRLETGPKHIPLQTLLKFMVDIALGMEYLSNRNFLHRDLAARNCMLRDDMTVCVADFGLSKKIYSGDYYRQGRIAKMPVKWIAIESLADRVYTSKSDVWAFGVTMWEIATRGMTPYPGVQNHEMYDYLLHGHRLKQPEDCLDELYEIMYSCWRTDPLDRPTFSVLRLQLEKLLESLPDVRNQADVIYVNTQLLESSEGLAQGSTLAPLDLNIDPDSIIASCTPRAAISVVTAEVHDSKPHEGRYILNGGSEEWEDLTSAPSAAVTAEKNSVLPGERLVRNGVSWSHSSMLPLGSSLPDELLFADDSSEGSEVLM
pIC50: −log10 of the molar value.
readout kind: pIC50

INSERT INTO results (molecule, observed_measurement) VALUES
  ('CNC(=O)c1cc2c(Oc3ccc(NC(=O)C4(C(=O)Nc5ccc(F)cc5)CC4)cc3)ccnc2cc1OCC(C)O (centres unmarked) [Compound 116]', '7.00 to 8.00'),
  ('COc1cc2nccc(Oc3ccc(NC(=O)C4(C(=O)Nc5ccc(F)cc5)CC4)cc3)c2cc1C(N)=O [Compound 7]', '≥ 8.00'),
  ('CNC(=O)c1cc2c(Oc3ccc(NC(=O)C4(C(=O)Nc5ccc(F)cc5C)CC4)cc3F)ccnc2cc1OC [Compound 265]', '7.00 to 8.00'),
  ('CC(O)COc1cc2nccc(Oc3ccc(NC(=O)C4(C(=O)Nc5ccc(F)cc5)CC4)cc3)c2cc1-c1ncco1 (centres unmarked) [Compound 125]', '≥ 8.00'),
  ('CNS(=O)(=O)c1cc2c(Oc3ccc(NC(=O)C4(C(=O)Nc5ccc(F)cc5)CC4)cc3)ccnc2cc1OC [Compound 207]', '7.00 to 8.00'),
  ('CNC(=O)c1cc2c(Oc3ccc(NC(=O)C4(C(=O)Nc5ccc(F)cc5Cl)CC4)cc3F)ccnc2cc1OC [Compound 264]', '7.00 to 8.00'),
  ('CNC(=O)Nc1cc2c(Oc3ccc(NC(=O)C4(C(=O)Nc5ccc(F)cc5)CC4)cc3)ccnc2cc1OC [Compound 279]', '≥ 8.00'),
  ('COc1cc2nccc(Oc3ccc(NC(=O)C4(C(=O)Nc5ccc(F)cc5)CC4)cc3Cl)c2cc1C(N)=O [Compound 132]', '≥ 8.00'),
  ('COc1cc2nccc(Oc3ccc(NC(=O)C4(C(=O)Nc5ccc(F)cc5)CC4)cc3)c2cc1C(=O)NOCC(O)CO (single isomer, unassigned) [Compound 30]', '< 6.52'),
  ('COc1cc2nccc(Oc3ccc(NC(=O)C4(C(=O)Nc5ccc(F)cc5)CC4)cc3)c2cc1P(C)(C)=O [Compound 51]', '6.52 to 7.00'),
  ('CNC(=O)c1cc2c(Oc3ccc(NC(=O)C4(C(=O)Nc5ccc(F)cc5OC)CC4)cc3F)ccnc2cc1OC [Compound 268]', '7.00 to 8.00'),
  ('CNC(=O)c1cc2c(Oc3ccc(NC(=O)C4(C(=O)Nc5ccc(F)cc5)CC4)cc3)ccnc2cc1OC [Compound 8]', '≥ 8.00'),
  ('CO/N=C/c1ccc2c(Oc3ccc(NC(=O)C4(C(=O)Nc5ccc(F)cc5)CC4)cc3)ccnc2c1 [Compound 278]', '6.52 to 7.00'),
  ('Cc1cc2c(Oc3ccc(NC(=O)C4(C(=O)Nc5ccc(F)cc5)CC4)cc3)ccnc2cc1C(N)=O [Compound 142]', '7.00 to 8.00');

###

Readings of pIC50 for the listed compounds
target: Human Met (residues R974-S1390 with A1209G and V1290L) (Homo sapiens); experiment: Human Met kinase assay (33P radiometric, KinaseProfiler); conditions: 10 μM ATP, read-out: c-Met IC50
pIC50: −log10 of the molar value.
readout kind: pIC50

INSERT INTO measurements (mol, experimental_system, readout_kind, observed_measurement) VALUES
  ('COc1cc2nccc(Oc3ccc(NC(=O)C4(C(=O)Nc5ccc(F)cc5)CC4)cc3F)c2cc1C(N)=O', 'Human Met (residues R974-S1390 with A1209G and V1290L) (Homo sapiens)', 'pIC50', '≥ 8.00'),
  ('COc1cc2nccc(Oc3ccc(NC(=O)C4(C(=O)Nc5ccc(F)cc5)CC4)cc3)c2cc1S(C)(=O)=O', 'Human Met (residues R974-S1390 with A1209G and V1290L) (Homo sapiens)', 'pIC50', '≥ 8.00'),
  ('CNC(=O)c1ccc2nccc(Oc3ccc(NC(=O)C4(C(=O)Nc5ccc(F)cc5)CC4)cc3)c2c1', 'Human Met (residues R974-S1390 with A1209G and V1290L) (Homo sapiens)', 'pIC50', '7.00 to 8.00'),
  ('COc1cc2nccc(Oc3ccc(NC(=O)C4(C(=O)Nc5ccc(F)cc5)CC4)cc3)c2cc1N1CC(F)(F)C1', 'Human Met (residues R974-S1390 with A1209G and V1290L) (Homo sapiens)', 'pIC50', '7.00 to 8.00'),
  ('COc1cc2nccc(Oc3ccc(NC(=O)C4(C(=O)Nc5ccc(F)cc5)CC4)cc3)c2cc1C(=O)N1CCC1', 'Human Met (residues R974-S1390 with A1209G and V1290L) (Homo sapiens)', 'pIC50', '7.00 to 8.00'),
  ('COc1cc2nccc(Oc3ccc(NC(=O)C4(C(=O)Nc5ccc(F)cc5)CC4)cc3)c2cc1-c1cnn(C)c1', 'Human Met (residues R974-S1390 with A1209G and V1290L) (Homo sapiens)', 'pIC50', '≥ 8.00'),
  ('CN1CC(NC(=O)c2ccc3nccc(Oc4ccc(NC(=O)C5(C(=O)Nc6ccc(F)cc6)CC5)cc4)c3c2)C1', 'Human Met (residues R974-S1390 with A1209G and V1290L) (Homo sapiens)', 'pIC50', '7.00 to 8.00');

###

molecular target: Met (Homo sapiens (Human)); test: Met autophosphorylation ELISA in PC-3 cells; conditions: cellular, HGF stimulated, read-out: c-Met IC50
# key: entry, value: IC50
readout kind: IC50

INSERT INTO assay_data (molecule, observed_measurement) VALUES
  ('COc1cc2nccc(Oc3ccc(NC(=O)C4(C(=O)Nc5ccc(F)cc5)CC4)cc3)c2cc1-c1ccncc1 [Compound 202]', '10 to 100 nM'),
  ('NS(=O)(=O)c1ccc2c(Oc3ccc(NC(=O)C4(C(=O)Nc5ccc(F)cc5)CC4)cc3)ccnc2c1 [Compound 254]', '100 to 300 nM'),
  ('CNC(=O)c1cc2c(Oc3ccc(NC(=O)C4(C(=O)Nc5c(C)cc(F)cc5C)CC4)cc3F)ccnc2cc1OC [Compound 267]', '100 to 300 nM'),
  ('CO/N=C(/C)c1cc2c(Oc3ccc(NC(=O)C4(C(=O)Nc5ccc(F)cc5)CC4)cc3)ccnc2cc1OC [Compound 36]', '100 to 300 nM'),
  ('Cc1cc2c(Oc3cc(F)c(NC(=O)C4(C(=O)Nc5ccc(F)cc5)CC4)cc3F)ccnc2cc1C(N)=O [Compound 294]', '≤ 10 nM'),
  ('COCCNc1cc2nccc(Oc3ccc(NC(=O)C4(C(=O)Nc5ccc(F)cc5)CC4)cc3)c2cc1C(N)=O [Compound 70]', '10 to 100 nM'),
  ('CNC(=O)c1cc2nccc(Oc3cc(F)c(NC(=O)C4(C(=O)Nc5ccc(F)cc5)CC4)cc3F)c2cc1C [Compound 290]', '≤ 10 nM');

###

In this section we review reported IC50 values for a set of compounds.
biological target: Met (Homo sapiens (Human), UniProt P08581); test: Met autophosphorylation ELISA in PC-3 cells; assay type: cell-based; details: cellular, HGF stimulated, read-out: c-Met IC50
readout kind: IC50

INSERT INTO results (compound, experimental_system, readout_kind, observed_measurement) VALUES
  ('CC(O)COc1cc2nccc(Oc3ccc(NC(=O)C4(C(=O)Nc5ccc(F)cc5)CC4)cc3)c2cc1-c1ncco1 (stereo not shown)', 'Met (Homo sapiens (Human), UniProt P08581)', 'IC50', '10 to 100 nM'),
  ('COC(=O)c1cc2c(Oc3ccc(NC(=O)C4(C(=O)Nc5ccc(F)cc5)CC4)cc3Cl)ccnc2cc1OC', 'Met (Homo sapiens (Human), UniProt P08581)', 'IC50', '10 to 100 nM'),
  ('NC(=O)c1cc2c(Oc3ccc(NC(=O)C4(C(=O)Nc5ccc(F)cc5)CC4)cc3)ccnc2cc1N', 'Met (Homo sapiens (Human), UniProt P08581)', 'IC50', '100 to 300 nM'),
  ('COc1cc2nccc(Oc3ccc(NC(=O)C4(C(=O)Nc5ccc(F)cc5)CC4)cc3)c2cc1C(=O)NO', 'Met (Homo sapiens (Human), UniProt P08581)', 'IC50', '10 to 100 nM'),
  ('CC1NC(=O)c2cc3c(Oc4ccc(NC(=O)C5(C(=O)Nc6ccc(F)cc6)CC5)cc4)ccnc3cc2O1 (stereo not shown)', 'Met (Homo sapiens (Human), UniProt P08581)', 'IC50', '100 to 300 nM'),
  ('CNc1cc2nccc(Oc3ccc(NC(=O)C4(C(=O)Nc5ccc(F)cc5)CC4)cc3)c2cc1C(=O)O', 'Met (Homo sapiens (Human), UniProt P08581)', 'IC50', '> 300 nM'),
  ('COc1cc2nccc(Oc3ccc(NC(=O)C4(C(=O)Nc5ccc(F)cc5)CC4)cc3)c2cc1N1CC(F)(F)C1', 'Met (Homo sapiens (Human), UniProt P08581)', 'IC50', '10 to 100 nM');

Source of measurements: patent US11542259B2
